Kindly state Activity for each of the entries shown.
test system: Mus musculus; assay: Analgesic activity in Mus musculus Swiss albino (mouse) assessed as protection against acetic acid-induced writhing response at 20 mg/kg, po administered 30 min before acetic acid challenge measured at 0.5 hr after challenge; format: functional
Answers are plain numbers, in %.

Check out these entries, answers already filled in.
Nc1nc(-c2ccccc2Cl)cc(-c2cc3ccccc3oc2=O)n1	8.22
COc1cccc(-c2cc(-c3cc4ccccc4oc3=O)nc(N)n2)c1	46.51

Alright, here's another compound for you.
Incoming: Look up Activity of Nc1nc(-c2cccc(Cl)c2)cc(-c2cc3ccccc3oc2=O)n1 and report it.
Outgoing: 52.21
